Every entry's value here was drawn from BindingDB's records for doi:10.1021/jm960509y.

# system: Gastrin/cholecystokinin type B receptor (Cavia porcellus)
# assay_name: Inhibitory activity against Cholecystokinin type B receptor using [125I]- BH-CCK-8 as radioligand in cortex tissue of guinea pig
recorded_endpoint: IC50 (nM)
Please state the figure in nM; there is no need to write the unit.

Lab entry: Gastrin/cholecystokinin type B receptor (Cavia porcellus) assay, molecule CSCCC(NC(=O)NC(CC(=O)O)C(=O)NC(Cc1ccccc1)C(N)=O)C(=O)NC(=O)C(Cc1c[nH]c2ccccc12)NC(=O)OC(C)(C)C (stereo unspecified) , IC50 = 25

---

Listed compounds paired with reported log10 IC50
# system: Gastrin/cholecystokinin type B receptor (Cavia porcellus)
# assay_name: Displacement of [125I]- BH-CCK-8 from Cholecystokinin type B receptor of guinea pig cortex
*1 amine or outer side, *2 acyl side, *3 side chain or, on linkers, in order; H or OH if unused. Where a SMILES comes first, the peptide text is derived from it. Side-chain parts run from the residue outwards. [ ]: non-standard residue; d: D form. The star is where a group is joined. ξ: configuration not given here. NH(4-MeO-phenyl) = COc1ccc(N*)cc1; ξW = NC(Cc1c[nH]c2ccccc12)C(=O)O; pNA = O=[N+]([O-])c1ccc(N*)cc1; X2 = O=[N+]([O-])c1cccc(N*)c1; NH(3-MeOPh) = COc1cccc(N*)c1; 3Abz = Nc1cccc(C(=O)O)c1; ξF = NC(Cc1ccccc1)C(=O)O; X1 = CC(=O)c1ccc(N*)cc1; ξD = NC(CC(=O)O)C(=O)O; Boc = CC(C)(C)OC(=O)*; CO = O=C([*:1])[*:2]
Values below are the log10 of the recorded IC50, with nM as the unit.

Below, each entry is followed by its recorded log10 IC50 result.
compound	log10 IC50
CC(=O)c1ccc(NC(=O)NCCCC[C@H](NC(=O)C(Cc2c[nH]c3ccccc23)NC(=O)OC(C)(C)C)C(=O)NC(CC(=O)O)C(=O)NC(Cc2ccccc2)C(N)=O)cc1 (stereo partly specified) (Boc-[ξW]K([CO-X1])[ξD][ξF]-NH2)	1.08
CC(C)(C)OC(=O)NC(Cc1c[nH]c2ccccc12)C(=O)N[C@@H](CCCCNC(=O)Nc1ccc([N+](=O)[O-])cc1)C(=O)NC(CC(=O)O)C(=O)NC(Cc1ccccc1)C(N)=O (stereo partly specified) (Boc-[ξW]K([CO-pNA])[ξD][ξF]-NH2)	1.49
COc1cccc(NC(=O)NCCCC[C@H](NC(=O)C(Cc2c[nH]c3ccccc23)NC(=O)OC(C)(C)C)C(=O)NC(CC(=O)O)C(=O)NC(Cc2ccccc2)C(N)=O)c1 (stereo partly specified) (Boc-[ξW]K([CO-NH(3-MeOPh)])[ξD][ξF]-NH2)	3.15
COc1ccc(NC(=O)NCCCC[C@H](NC(=O)C(Cc2c[nH]c3ccccc23)NC(=O)OC(C)(C)C)C(=O)NC(CC(=O)O)C(=O)NC(Cc2ccccc2)C(N)=O)cc1 (stereo partly specified) (Boc-[ξW]K([CO-NH(4-MeO-phenyl)])[ξD][ξF]-NH2)	2.88
CC(C)(C)OC(=O)N[C@@H](Cc1c[nH]c2ccccc12)C(=O)N[C@@H](CCCCNC(=O)Nc1cccc([N+](=O)[O-])c1)C(=O)N[C@@H](CC(=O)O)C(=O)N[C@@H](Cc1ccccc1)C(N)=O (Boc-WK([CO-X2])DF-NH2)	3.08

Could you now consider this next compound?
The recorded log10 IC50 for COC(=O)c1cccc(NC(=O)NCCCC[C@H](NC(=O)C(Cc2c[nH]c3ccccc23)NC(=O)OC(C)(C)C)C(=O)NC(CC(=O)O)C(=O)NC(Cc2ccccc2)C(N)=O)c1 (stereo partly specified) (Boc-[ξW]K([CO-3Abz-OMe])[ξD][ξF]-NH2) is 3.00
